The measured values listed here are drawn from patent US8975417B2.

# measurement_target: His-Brd3(20-477) (Homo sapiens (Human))
# Sequence (Q15059 20-477): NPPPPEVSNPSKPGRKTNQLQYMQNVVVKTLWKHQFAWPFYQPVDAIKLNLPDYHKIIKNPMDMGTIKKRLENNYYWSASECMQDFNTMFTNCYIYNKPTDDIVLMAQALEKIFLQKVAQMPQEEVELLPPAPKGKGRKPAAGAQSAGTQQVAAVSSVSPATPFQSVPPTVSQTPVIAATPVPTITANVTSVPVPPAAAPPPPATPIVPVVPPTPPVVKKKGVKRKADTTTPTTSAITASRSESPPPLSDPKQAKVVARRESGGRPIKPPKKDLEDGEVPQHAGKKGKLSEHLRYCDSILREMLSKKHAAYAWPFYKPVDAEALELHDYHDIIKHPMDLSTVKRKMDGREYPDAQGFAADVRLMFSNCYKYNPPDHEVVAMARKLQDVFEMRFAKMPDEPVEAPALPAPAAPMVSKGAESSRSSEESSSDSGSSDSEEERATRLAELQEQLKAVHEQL
Please use condition met for IC50 under 0.06 µM and condition not met for everything else, ties included.

> print(dat)
                                   molecule              label
1  COc1ncccc1-n1nc(C)c2c1C(=O)N(c1cc(C)c3nnc(C)n3c1)C2c1ccc(Cl)cc1 (stereo not drawn)      condition met
2  Cc1cc(N2C(=O)c3nn(C4CN(C)C4)c(C)c3C2c2ccc(Cl)cc2)cn2c(C)nnc12 (stereo not drawn)  condition not met
3  CCc1nn(C2CC2)c2c1[C@H](c1ccc(Cl)cc1)N(c1cc(C)c3nnc(C)n3c1)C2=O  condition not met
4  COc1ccccc1-n1nc(C)c2c1C(=O)N(c1cc(C)c3nnc(C)n3c1)C2c1ccc(Cl)cc1F (stereo not drawn)      condition met
5  COc1ncc(-n2nc3c(c2C(C)C)C(c2ccc(Cl)cc2)N(c2cc(C)c4nnc(C)n4c2)C3=O)c(OC)n1 (stereo not drawn)      condition met
6  Cc1nn(-c2ccnn2C)c2c1[C@H](c1ccc(Cl)cc1)N(c1cc(C)c3nnc(C)n3c1)C2=O  condition not met
7  Cc1cc(N2C(=O)c3nn(C)cc3[C@@H]2c2ccc(Cl)cc2)cn(C)c1=O  condition not met
8  Cc1cc(N2C(=O)c3nn(C4COC4)c(C)c3C2c2ccc(Cl)cc2)cn(C)c1=O (stereo not drawn)  condition not met
9  CCc1nn(CCO)c2c1C(c1ccc(Cl)cc1)N(c1cc(C)c(=O)n(C)c1)C2=O (stereo not drawn)      condition met

----------
# measurement_target: His-CREBBP (1081-1197) bromodomain (Homo sapiens (Human))
# assay_method_text: AlphaScreen in-vitro binding assay for CREBBP
# condition_context: biochemical
measured_endpoint: log10(IC50) (log10 of the value in µM)

> print(dat)
                                    compound                        measurement.target  numeric.result
 1  COc1ncc(-n2nc3c(c2C(F)(F)F)C(c2ccc(Cl)cc2)N(c2cc(Cl)c(=O)n(C)c2)C3=O)c(OC)n1 (stereo not shown)  His-CREBBP (1081-1197) bromodomain (Homo sapiens (Human))            0.18
 2  CCn1nc(C)c2c1C(=O)N(c1cc(C)c(=O)n(C)c1)C2c1ccc(Cl)cc1F (stereo not shown)  His-CREBBP (1081-1197) bromodomain (Homo sapiens (Human))           -0.20
 3  Cc1nn(C2CC2)c2c1C(c1ccc(C(F)(F)F)cc1)N(c1cc(C)c(=O)n(C)c1)C2=O (stereo not shown)  His-CREBBP (1081-1197) bromodomain (Homo sapiens (Human))            0.56
 4  Cc1[nH]nc2c1C(c1ccc(Cl)cc1)N(c1cc(C)c(=O)n(C)c1)C2=O (stereo not shown)  His-CREBBP (1081-1197) bromodomain (Homo sapiens (Human))            0.58
 5  Cc1nn(C2CC2)c2c1[C@@H](c1ccc(Cl)cc1)N(c1cc(C)c(=O)n(C)c1)C2=O  His-CREBBP (1081-1197) bromodomain (Homo sapiens (Human))            0.11
 6  COc1c2c(nn1C)C(=O)N(c1cc(C)c(=O)n(C)c1)C2c1ccc(Cl)cc1 (stereo not shown)  His-CREBBP (1081-1197) bromodomain (Homo sapiens (Human))            0.28
 7  CCn1nc(C)c2c1C(=O)N(c1cc(C)c3nnc(C)n3c1)C2c1ccc(Cl)cc1 (stereo not shown)  His-CREBBP (1081-1197) bromodomain (Homo sapiens (Human))            1.18
 8  Cc1cc(N2C(=O)c3c(c(C(F)(F)F)nn3C3CC3)C2c2ccc(Cl)cc2)cn(C)c1=O (stereo not shown)  His-CREBBP (1081-1197) bromodomain (Homo sapiens (Human))            0.68
 9  CCc1c2c(nn1C1CC1)C(=O)N(c1cc(C)c(=O)n(C)c1)C2c1ccc(Cl)cc1 (stereo not shown)  His-CREBBP (1081-1197) bromodomain (Homo sapiens (Human))           -0.02
10  Cc1nn(C2CC2)c2c1C(c1ccc(Cl)cc1)N(c1cc(Cl)c(=O)n(C)c1)C2=O (racemic)  His-CREBBP (1081-1197) bromodomain (Homo sapiens (Human))            0.77
11  CCn1nc2c(c1C)C(c1ccc(Cl)cc1F)N(c1cc(C)c3nnc(C)n3c1)C2=O (stereo not shown)  His-CREBBP (1081-1197) bromodomain (Homo sapiens (Human))            0.79
12  Cc1cc(N2C(=O)c3nn(C(C)C)cc3C2c2ccc(Cl)cc2)cn(C)c1=O (stereo not shown)  His-CREBBP (1081-1197) bromodomain (Homo sapiens (Human))           -0.42

----------
The entries below are paired with their reported IC50.
# measurement_target: His-CREBBP (1081-1197) bromodomain (Homo sapiens (Human), UniProt Q92793)
# Sequence (Q92793 1081-1197): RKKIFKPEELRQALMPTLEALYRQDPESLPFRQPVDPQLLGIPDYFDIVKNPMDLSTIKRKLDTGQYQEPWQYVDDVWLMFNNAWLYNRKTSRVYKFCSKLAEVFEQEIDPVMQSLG
# assay_method_text: AlphaScreen in-vitro binding assay for CREBBP
# condition_context: biochemical
measured_endpoint: IC50 (µM)

> print(dat)
                                   compound  measured.endpoint  numeric.result
1  COc1nccc(-n2nc(C)c3c2C(=O)N(c2cc(C)c(=O)n(C)c2)C3c2ccc(Cl)cc2)n1 (centres unmarked)               IC50             7.3
2  Cc1cc(N2C(=O)c3nn(C(=O)N(C)C)c(C)c3C2c2ccc(Cl)cc2)cn(C)c1=O (centres unmarked)               IC50             1.5
3  Cc1cc(N2C(=O)c3c(cnn3C3CC3)C2c2ccc(Cl)cc2)cn(C)c1=O (centres unmarked)               IC50             5.2
4  CC(C)n1ncc2c1C(=O)N(c1cc(Cl)c(=O)n(C)c1)C2c1ccc(Cl)cc1 (centres unmarked)               IC50             1.9
5  Cc1nn(C(C)C)c2c1C(c1ccc(Cl)cc1)N(c1cc(Cl)c(=O)n(C)c1)C2=O (centres unmarked)               IC50             2.6
6  Cc1nn(C[C@H](O)C(F)(F)F)c2c1[C@@H](c1ccc(Cl)cc1)N(c1cc(C)c3nnc(C)n3c1)C2=O               IC50              12
7  Cc1cc(N2C(=O)c3nn(C4COC4)c(C)c3C2c2ccc(Cl)cc2)cn2c(C)nnc12 (centres unmarked)               IC50             4.3
8  Cc1nn(C(=O)N(C)C)c2c1C(c1ccc(Cl)cc1)N(c1cc(C)c(=O)n(C)c1)C2=O (centres unmarked)               IC50             4.6

----------
# measurement_target: His-CREBBP (1081-1197) bromodomain (Homo sapiens (Human))
# assay_method_text: AlphaScreen in-vitro binding assay for CREBBP
# condition_context: biochemical
measured_endpoint: IC50 (µM)

> print(dat)
                                   compound  value.unit  readout.relation  numeric.result
1  Cc1nn(C(C)C)c2c1C(c1ccc(F)cc1F)N(c1cc(C)c3nnc(C)n3c1)C2=O (stereo not shown) [Example 174]          µM                 =              12
2  CC(=O)Nc1cc(N2C(=O)c3c(c(C)nn3C3CC3)C2c2ccc(Cl)cc2)nn2c(C)nnc12 (stereo not shown) [Example 126]          µM                 >              37
3  COc1ncc(-n2nc3c(c2C(C)C)C(c2ccc(Cl)cc2)N(c2cc(C)c4nnc(C)n4c2)C3=O)c(OC)n1 (stereo not shown) [Example 67]          µM                 =             2.8
4  Cc1cc(N2C(=O)c3nn(C(C)C)c(C)c3C2c2ccc(F)cc2F)cn2c(C)nnc12 (stereo not shown) [Example 175]          µM                 =              13

----------
# measurement_target: nuclear BRD4-NUT foci in HCC2494 NUT midline carcinoma cells (Homo sapiens (Human), UniProt O60885+Q86Y26)
# assay_method_text: Nut-foci formation assay
# condition_context: 24 hours, read-out: HCS Brd4-NUT IC50
The threshold is 90 nM. Values of IC50 beneath it are tagged criterion met; values meeting or exceeding it are tagged criterion not met.

> print(dat)
                                   compound              label
1  Cc1cc(N2C(=O)c3nn(C4CN(C)C4)c(C)c3C2c2ccc(Cl)cc2)cn(C)c1=O (stereo not shown)  criterion not met
2  Cc1nn(-c2ccnn2C)c2c1[C@@H](c1ccc(Cl)cc1)N(c1cc(C)c3nnc(C)n3c1)C2=O      criterion met
3  Cc1nn(C2CC2)c2c1[C@@H](c1ccc(Cl)cc1)N(c1cc(Cl)c(=O)n(C)c1)C2=O      criterion met
4  CNC(=O)n1nc2c(c1C)C(c1ccc(Cl)cc1)N(c1cc(C)c(=O)n(C)c1)C2=O (stereo not shown)  criterion not met
5  COc1ncc(-n2nc(C)c3c2C(=O)N(c2cc(C)c(=O)n(C)c2)[C@H]3c2ccc(Cl)cc2)c(OC)n1  criterion not met
6  CCc1nn(CCOCC(F)(F)F)c2c1C(c1ccc(Cl)cc1)N(c1cc(OC)c3nnc(C)n3c1)C2=O (stereo not shown)  criterion not met
